pIC50: −log10 of the molar value.
Kindly find below pIC50 information for Fibroblast growth factor receptor 1 (Homo sapiens, UniProt P11362) taken from the literature.
Assay Endpoint: pIC50

>  <Structure Smiles>
C=CC(=O)Nc1cc(N2CC(OC)C2)ccc1Nc1ncc2cc(-c3c(Cl)c(OC)cc(OC)c3Cl)c3nccn3c2n1

>  <Assay Endpoint>
pIC50

>  <Test Value>
> 7.30

$$$$
>  <Structure Smiles>
Cn1cnc(-c2ccc3c(-c4cc(NS(C)(=O)=O)cc(-c5ccc(F)cc5F)c4)cnn3c2)n1

>  <Assay Endpoint>
pIC50

>  <Test Value>
6.87

$$$$
>  <Structure Smiles>
c1coc(-c2cc(Nc3ncnc(Nc4ccc(N5CCOCC5)cc4)n3)[nH]n2)c1

>  <Assay Endpoint>
pIC50

>  <Test Value>
5.23 to 6.00

$$$$
>  <Structure Smiles>
COc1cc2nccc(Oc3cc(F)c(NC(=S)N4CC(F)(F)C4)c(F)c3)c2cc1C(N)=O

>  <Assay Endpoint>
pIC50

>  <Test Value>
6.70 to 7.30

$$$$
>  <Structure Smiles>
Cn1cc(-c2ccc3c(c2)ncn3-c2cc(-c3ccccc3Cl)cc(NS(=O)(=O)C3CC3)n2)cn1

>  <Assay Endpoint>
pIC50

>  <Test Value>
8.14

$$$$
>  <Structure Smiles>
COc1cc(OC)c(F)c(CCc2cnc3[nH]c(-c4cccnc4OC)cc3n2)c1F

>  <Assay Endpoint>
pIC50

>  <Test Value>
> 7.00

$$$$
>  <Structure Smiles>
COc1ccc(Nc2ncccc2-c2ncnc(Nc3cc(OC)c(OC)c(OC)c3)n2)c(C)c1

>  <Assay Endpoint>
pIC50

>  <Test Value>
< 5.02

$$$$
>  <Structure Smiles>
O=C(Nc1ccc(Oc2ccnc3cc(-c4cn(-c5ccccc5)cn4)ccc23)c(F)c1Cl)NC1CC1

>  <Assay Endpoint>
pIC50

>  <Test Value>
6.00 to 6.70

$$$$
